- Tested on: HL-60(TB) leukemia
- ASSAY NOTES: NCI tumour cell line growth inhibition, 48 h

| MOLECULE | GI50 |
| --- | --- |
| Nc1ncc(-c2ccc3ncnc(Nc4cccc(Cl)c4)c3c2)cn1 | 0.525 µM |
| CCN1CCN(CCNc2nccc(-c3c(-c4ccc(F)c(O)c4)nc4occn34)n2)S1(=O)=O | 4.16 µM |
| NCCCCC(NC(=O)C(N)CCCN=C(N)N)C(=O)NC(CCCCN)C(=O)NC(CCCN=C(N)N)C(=O)NC(CCCN=C(N)N)C(=O)NC(CCC(N)=O)C(=O)NC(CCCN=C(N)N)C(=O)NC(CCCN=C(N)N)C(=O)NC(CCCN=C(N)N)C(=O)NCC(=O)NCC(=O)O (stereo not drawn) | > 50 µM |

----------
- System: HCT-116 colon
- ASSAY NOTES: NCI tumour cell line growth inhibition, 48 h

| COMPOUND | SUBJECT OF TEST | TGI |
| --- | --- | --- |
| COc1ccc(-c2ncnc3c2ncn3CC#CCCl)cc1 | HCT-116 colon | 14.7 µM |
| OC1NC2Nc3ccccc3NC2NC1O (stereo not given) | HCT-116 colon | > 100 µM |
| CO/C=C(/C(=O)OC)[C@@H]1C[C@@H]1c1ccc2ccccc2c1 | HCT-116 colon | 44.1 µM |
| COc1ccc(/C=N\N(C)Cc2cccc3ccsc23)cc1 | HCT-116 colon | > 100 µM |
| O=c1onc2n1-c1ccc(Cl)cc1C(=S)N1CSCC21 (stereo not given) | HCT-116 colon | 95.7 µM |
| COc1cc(-n2ccnc2-c2ccc3ccccc3c2)cc(OC)c1OC | HCT-116 colon | 15.3 µM |
| CC(C)(C)OC(=O)NCC(CNC(=O)OC(C)(C)C)C(N)=O | HCT-116 colon | > 100 µM |
| CC1(C)N=C(N)N=C(N)N1c1ccc(CNC(=O)Nc2ccc(S(=O)(=O)F)c(Cl)c2)c(Cl)c1 | HCT-116 colon | > 100 µM |
| S=P1(Sc2ccccc2)Oc2ccc3ccccc3c2-c2c(ccc3ccccc23)O1 | HCT-116 colon | > 100 µM |
| NC(=S)N/N=C/c1ccc(OC(=O)COc2cc(Cl)c(Cl)cc2Cl)cn1 | HCT-116 colon | > 100 µM |
| CCCc1nn(C)c2c(=O)[nH]c(-c3cc(S(=O)(=O)N4CCN(C)CC4)ccc3OCC)nc12 | HCT-116 colon | > 100 µM |
| CC(=O)OC12C(C)=C(C)C(=O)N1c1ccccc1N2C(C)=O (stereo not given) | HCT-116 colon | > 100 µM |
| COc1cc2nc(Nc3cccc(Cl)c3)nc(N)c2cc1OC | HCT-116 colon | 6.35 µM |
| Cc1ccc2nc3ccccc3c(C3C4C(=O)N(c5ccc(F)cc5)C(=O)C4ON3C(C(N)=O)c3ccccc3)c2c1 (stereo not given) | HCT-116 colon | > 100 µM |
| Cc1nc(OCc2ccccc2)c2ncn(CCO)c2n1 | HCT-116 colon | > 100 µM |
| CCCn1cc2c(=O)[nH]c(SC)nc2n1 | HCT-116 colon | > 100 µM |
| CCOC(=O)c1[nH]c2cc(Cl)ccc2c1[C@@H](C(=O)NC(C)(C)C)N(CC)C(=O)CCCCC#Cc1cccc2c1CN(C1CCC(=O)NC1=O)C2=O (stereo not given in full) | HCT-116 colon | 18.5 µM |
| CCN1CCN(CCNc2nccc(-c3c(-c4ccc(F)c(O)c4)nc4occn34)n2)S1(=O)=O | HCT-116 colon | > 100 µM |
| C(=N\Nc1ncc(-c2cc3cc4c(cc3o2)OCO4)s1)/c1ccco1 | HCT-116 colon | 4.03 µM |
| c1ccc2c3c(ccc2c1)-c1[nH]ncc1CCO3 | HCT-116 colon | > 88.5 µM |
| O=C(Nc1ccccc1)N(CCN(Cc1ccccc1)C(=O)Nc1ccccc1)CCN(Nc1ccccc1)C(=O)Nc1ccccc1 | HCT-116 colon | > 100 µM |
| O=C(OC1=CCN(Br)C1=O)C1=C(O)C(=O)N(Br)C1 | HCT-116 colon | 35.6 µM |
| CN(C)CCNc1ccc2ncn3c4ccc(O)cc4c(=O)c1c23 | HCT-116 colon | 11.5 µM |
| Oc1ccccc1-c1nn(CNc2ccc(Cl)cc2)c(=S)o1 | HCT-116 colon | 51.4 µM |
| COC[C@H](NC(=O)c1cnc(C)s1)C(=O)N[C@@H](COC)C(=O)N[C@@H](Cc1ccccc1)C(=O)[C@@]1(C)CO1 | HCT-116 colon | 32.6 µM |

----------
- Test system: UACC-257 melanoma
- ASSAY NOTES: NCI tumour cell line growth inhibition, 48 h
Listing of recorded TGI by entry.

| COMPOUND | TGI |
| --- | --- |
| COC(=O)CCc1ccc(CCC(=O)OC)cc1 | > 100 µM |
| Nc1nc(Cl)cc(NCC2(CCO)CCC2)n1 | > 100 µM |
| CCC[CH2][Sn](=[O])[CH2]CCC | > 50 µM |
| COc1ccc(N2C(=O)C3CC(c4ccc(Br)cc4)c4c([nH]c5ccccc45)C3C2=O)cc1 (configuration not stated) | 36.8 µM |
| CC(=O)OC12C(C)=C(C)C(=O)N1c1ccccc1N2C(C)=O (configuration not stated) | > 100 µM |
| C=C1C(C(=O)OC)[C@H]1C(=O)OC (some centres not stated) | > 100 µM |
| Cn1c(-c2ccco2)ccc1-c1ccc(C=O)o1 | > 100 µM |
| COc1nc(N)nc2c1ncn2C1CC(O)C(CO)O1 (configuration not stated) | > 100 µM |
| COc1cc(C2C=C(c3ccccc3)Oc3cc4c(cc32)OCO4)cc(OC)c1OC (configuration not stated) | > 100 µM |
| Cc1ccc(OP(=O)(Oc2ccc(C)cc2)N2C=Cc3ccccc3C2C#N)cc1 (configuration not stated) | > 100 µM |
| CC1=C([Te]c2ccccc2)C(=O)c2ccccc2C1=O | 5.92 µM |
| NC(=S)N1N=C2CCCCCC[C@@H]2[C@H]1c1ccccc1 | > 100 µM |

----------
Here, each record is paired with measured TGI data.
- Test system: M14 melanoma
- ASSAY NOTES: NCI tumour cell line growth inhibition, 48 h

| COMPOUND | TGI |
| --- | --- |
| CCOP(=O)(OCC)Oc1c(OC)c2[nH]c(C(=O)OC)cc2c2c(C(=O)O)c[nH]c12 | > 100 µM |
| COc1ccc(Nc2nc(NCCNc3ccnc4cc(Cl)ccc34)nc(N3CCOCC3)n2)cc1 | 3.47 µM |
| O=C1C2CCN(CC2)C1CN1CCOCC1 (stereo unspecified) | 6.46 µM |
| Fc1cccc(COc2ccc(Nc3ncnc4onc(-c5ccccc5)c34)cc2)c1 | > 100 µM |
| O=c1cc(-c2ccc(F)cc2)[nH]c2ncccc12 | > 100 µM |
| CSc1cc([C@@H]2C[C@H]2c2ccc(Cl)cc2)on1 | > 100 µM |
| Cc1nc(-c2ccccc2)cn2c1nc1ccccc12 | > 82.8 µM |
| O=C1C(Cl)=C(Cl)C(=O)C(CCNc2nccs2)=C1Cl | 42 µM |
| O=c1onc2n1-c1ccc(Cl)cc1C(=S)N1CSCC21 (stereo unspecified) | 28.8 µM |
| O=C(Nc1ccccc1)N(CCN(Cc1ccccc1)C(=O)Nc1ccccc1)CCN(Nc1ccccc1)C(=O)Nc1ccccc1 | > 100 µM |
| CC(=O)Nc1nc(C)c(S(=O)(=O)NC(=O)NC2NC(=O)NC2=O)s1 (stereo unspecified) | > 100 µM |

----------
- System: SF-539 CNS
- ASSAY NOTES: NCI tumour cell line growth inhibition, 48 h
As shown below, each of these compounds has a reported TGI value.

| COMPOUND | SUBJECT OF TEST | TGI |
| --- | --- | --- |
| O=c1[nH]c(Nc2ccc(Br)c(C(F)(F)F)c2)nc2nc[nH]c12 | SF-539 CNS | > 100 µM |
| CCCCSC1=N/C(=C\c2ccccc2O)C(=O)N1 | SF-539 CNS | > 100 µM |
| CC(C)(C)C1=CC(=N/N=c2\scc(-c3ccccc3)n2-c2ccccc2)C=C(C(C)(C)C)C1=O | SF-539 CNS | > 100 µM |
| COC(NC(=O)Nc1ccc(C)cc1)(C(F)(F)F)C(F)(F)F | SF-539 CNS | > 100 µM |
| CCn1c(SCC(=O)N/N=C2\SCC(=O)N2c2ccc(C)cc2)nc2ccccc2c1=O | SF-539 CNS | 33.5 µM |
| Cc1nc(-c2ccccc2)cn2c1nc1ccccc12 | SF-539 CNS | 53 µM |
| Cc1cccc(-c2nnc3s/c(=C\c4ccc(N(C)C)cc4)c(=O)n23)c1 | SF-539 CNS | > 100 µM |
| Cc1cc(OCc2nnc3n2S(=O)(=O)c2ccccc2N3C)ccc1Cl | SF-539 CNS | 38.6 µM |
| O=[N+]([O-])c1nccn1CC(O)c1ccccc1 (stereo not given) | SF-539 CNS | > 100 µM |
| NC(=S)N1N=C2CCCCCC[C@@H]2[C@H]1c1ccccc1 | SF-539 CNS | > 100 µM |
| CSc1ccc(C2=NN(C(C)=O)C(c3ccc(-c4cc(Cl)c(Cl)cc4Cl)o3)C2)cc1 (stereo not given) | SF-539 CNS | 29.5 µM |
| Nn1c(CCCCCCCCc2nnc(-c3c(O)ccc4ccccc34)n2N)nnc1-c1c(O)ccc2ccccc12 | SF-539 CNS | > 100 µM |
| COc1ccc(CC(=O)NCCc2ccc(OC)c(OC)c2OC)cc1 | SF-539 CNS | 36.7 µM |
| Cc1cn(C2CC(n3cc(Cn4ccc(=O)[nH]c4=O)nn3)C(CO)O2)c(=O)[nH]c1=O (stereo not given) | SF-539 CNS | > 100 µM |
| NC(=O)c1cc(N2CC2)c([N+](=O)[O-])cc1[N+](=O)[O-] | SF-539 CNS | > 200 µM |
| Nc1ncnc2c1ncn2[C@H]1C=C[C@@H](NO)C1 | SF-539 CNS | > 100 µM |
| Nc1nc(Cl)cc(NCC2(CCO)CCC2)n1 | SF-539 CNS | > 100 µM |
| O=C(CC1(O)C(=O)Nc2c(Cl)cc(Cl)cc21)c1ccccc1 (stereo not given) | SF-539 CNS | > 100 µM |
| CCN(CC)CCN(CC)CC.CCN(CC)CCN(CC)CC.[Cu+2].[Cu+2].[O-][Cl+3]([O-])([O-])[O-].[OH3+].[OH3+] | SF-539 CNS | > 100 µM |
| CCC1=C(c2ccc(OC)cc2)C(C)(C)Oc2c1ccc(O)c2CN1CCCC1 | SF-539 CNS | 17.2 µM |
